Origin of the recorded values: patent US20230212554A1

- TARGET: NPA3 (influenza A virus A/Aalborg/INS132/2009 …, UniProt P68042 1-489)
- PROTOCOL TEXT: ELISA on recombinant NP
MEASUREMENT TYPE: EC50 (nM)

INSERT INTO results (binder, reported_result) VALUES
  ('NP8 (antibody, V domains shown) VH: EVQLVESGGGLVQPGGSLRLSCAASGFTINSFGIHWVRQAPGKGLEWVAGIGPFGGSTFYADSVKGRFTISADTSKNTAYLQMNSLRAEDTAVYYCARGFYWFDYWGQGTLVTVSS VL: DIQMTQSPSSLSASVGDRVTITCRASQDVDDSVAWYQQKPGKAPKLLIYWTRYLYSGVPSRFSGSGSGTDFTLTISSLQPEDFATYYCQQGYNYPLTFGQGTKVEIKR', 0.07),
  ('NP13 (antibody, V domains shown) VH: EVQLVESGGGLVQPGGSLRLSCAASGFTINNYGIHWVRQAPGKGLEWVASIGPYGGSTYYADSVKGRFTISADTSKNTAYLQMNSLRAEDTAVYYCARFGYFNWLDMDYWGQGTLVTVSS VL: DIQMTQSPSSLSASVGDRVTITCRASQDVGYWVAWYQQKPGKAPKLLISSASGLYSGVPSRFSGSGSGTDFTLTISSLQPEDFATYYCQQGWDWPITFGQGTKVEIKR', 9.36),
  ('NP9 (antibody, V domains shown) VH: EVQLVESGGGLVQPGGSLRLSCAASGFTINNGWIHWVRQAPGKGLEWVAGIGPYWGFTSYADSVKGRFMISADTSKNTAYLQMNSLRAEDTAVYYCARFDSDHDHHYSYYYYYDNGYMDYWGQGTLVTVSS VL: DIQMTQSPSSLSASVGDRVTITCRASQDVWFSVAWYQQKPGKAPKLLIYGTTSLYSGVPSRFSGSGSGTDFTLTISSLQPEDFATYYCQQYFNYPLTFGQGTKVEIKR', 4.38),
  ('NP4 (antibody, V domains shown) VH: EVQLVESGGGLVQPGGSLRLSCAASGFTISNSSIHWVRQAPGKGLEWVAGIGPSGGYTFYADSVKGRFTISADTSKNTAYLQMNSLRAEDTAVYYCARFHSHNSYYSYSHYGYMDYWGQGTLVTVSS VL: DIQMTQSPSSLSASVGDRVTITCRASQDVGWGVAWYQQKPGKAPKLLISGPSSLYSGVPSRFSGSGSGTDFTLTISSLQPEDFATYYCQQYFNYPITFGQGTKVEIKR', 10.1);
